Target: pre-existing anti-scFv903 antibodies in human serum H29 (human)
Assay: competition ADA bridging ELISA
ATTRIBUTE_MEASURED: signal change in competition ELISA (% reduction in OD) (%)
Answer in %, number only, no unit symbol.

Enquiry: Which signal change in competition ELISA (% reduction in OD) is listed for scFv 791 (scFv) scFv: MEIVMTQSPSTLSASLGDRVIITCQSSQSVYGNIWMAWYQQKSGKAPKLLIYQASKLASGVPSRFSGSGSGAEFSLTISSLQPDDFATYYCQGNFNTGDRYAFGQGTKLTVLGGGGGSGGGGSGGGGSGGGGSEVQLVESGGGLVQPGGSLRLSCTASGFTISRSYWICWVRQAPGKGLEWVACIYGDNDITPLYANWAKGRFPVSTDTSKNTVYLQMNSLRAEDTAVYYCARLGYADYAYDLWGQGTLVTVSS ?
Return: -79

Enquiry: Query: signal change in competition ELISA (% reduction in OD); subject: scFv 903 (scFv) scFv: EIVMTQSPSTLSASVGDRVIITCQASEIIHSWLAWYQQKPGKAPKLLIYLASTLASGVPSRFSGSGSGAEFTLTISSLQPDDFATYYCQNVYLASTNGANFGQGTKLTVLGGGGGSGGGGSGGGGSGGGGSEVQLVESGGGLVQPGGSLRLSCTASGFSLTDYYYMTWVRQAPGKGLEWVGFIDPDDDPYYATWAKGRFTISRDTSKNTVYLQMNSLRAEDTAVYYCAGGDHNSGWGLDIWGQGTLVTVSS
Return: -79

Enquiry: Need signal change in competition ELISA (% reduction in OD) of scFv105 (scFv) scFv: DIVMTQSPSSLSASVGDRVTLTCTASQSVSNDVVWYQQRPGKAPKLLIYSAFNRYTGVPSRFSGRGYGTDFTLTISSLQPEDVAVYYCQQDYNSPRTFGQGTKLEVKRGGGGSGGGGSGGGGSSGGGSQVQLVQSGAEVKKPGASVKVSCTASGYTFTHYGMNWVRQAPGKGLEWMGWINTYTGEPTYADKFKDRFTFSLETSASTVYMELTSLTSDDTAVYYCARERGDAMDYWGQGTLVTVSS , thanks.
Return: -51

These measurements were taken from patent US20210214461A1.
